# measurement.target: T1, receptor for epidermic growth factor (EGF-R) on Capan-1 and A431 cells (human (human cell line Capan-1), UniProt P00533 25-1210)
# T1 construct: whole, on cells; both are called EGF receptors; also called EGF receptor; receptor of EGF
# protocol.details: competition with 125I-EGF on Capan-1 cells, two-site fit (Graphpad Inplot4); low affinity site
Positions of bridges follow the written chain, without caps; N, C: chain ends. No end group written: not given here.

binder	IC50 [µM]
EQHADPICNKPCKTHDDCSGAWFCQACWNSARTCGPYVG (other, disulfide 12-27, 18-34, 8-24, Secreted from E. coli MC1061 (pIMAM3, OmpA signal peptide directly before the first codon of native PCI); also called PCI; rPCI) [potato carboxypeptidase inhibitor, isoform IIa, recombinant]	579
